B1: Double-stranded RNA-binding protein Staufen homolog 1, residues 183 to 249; numbered along this chain, O95793 (parent)
chain: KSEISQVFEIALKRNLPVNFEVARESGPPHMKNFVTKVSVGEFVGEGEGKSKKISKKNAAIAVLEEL

variants of: B1; assay: abundance fitness (aPCA) (normalised: wild type 0, dead -1); higher = more abundant; growth selection in yeast, the domain comes from the species named; conditions: Homo sapiens
test.readout: abundance fitness
// no unit, no text: just the number

Please review the entries below; each comes with its answer.
> print(dat)
   mutation  quantitative.readout
1       F8K                -0.135
2       I4A                -0.705
3      M31R                 0.025

Now look at this entry.
Give recorded abundance fitness. `K52A`
-0.125
